assayed-target: human LPA1 (Homo sapiens, UniProt Q92633)
Construct: expressed in transfected cells; host or cells: CHO-K1
Sequence (Q92633 whole entry): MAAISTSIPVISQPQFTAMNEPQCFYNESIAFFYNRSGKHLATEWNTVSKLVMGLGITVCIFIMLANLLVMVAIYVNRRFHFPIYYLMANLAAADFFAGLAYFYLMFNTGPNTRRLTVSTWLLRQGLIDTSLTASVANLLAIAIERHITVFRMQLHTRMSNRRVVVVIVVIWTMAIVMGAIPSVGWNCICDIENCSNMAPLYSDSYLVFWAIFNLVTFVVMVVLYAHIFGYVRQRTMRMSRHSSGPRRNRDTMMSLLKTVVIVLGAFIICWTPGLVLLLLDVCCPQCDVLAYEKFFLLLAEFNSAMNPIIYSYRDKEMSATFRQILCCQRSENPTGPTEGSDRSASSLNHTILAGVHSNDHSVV
assay-summary: In vitro LPA1 calcium flux antagonist assay - Bioduro protocol
Format: cell-based
applied-conditions: CHO-K1 cells overexpressing human LPA1 and G15a; LPA challenge at EC80; calcium mobilization on FLIPR Tetra; read-out: IC50
reported-metric: pIC50
The meaning of pIC50 here: minus log10 of the concentration in molar units.

>>> recorded_result("COc1cc(-c2ccc(NC3(C(=O)O)CC3)cc2COC2Cc3ccccc3C2)cc(OC)c1C(C)=O")
7.87
>>> recorded_result("COc1cc(OC2CC2)c(F)c(-c2ccc(OC3(C(=O)O)CCOCC3)cc2COC2CC2)c1")
6.97
>>> recorded_result("CCOc1cccc(-c2ccc(NC3(C(=O)O)CCOCC3)cc2CCC2CC2)c1F")
8.92
>>> recorded_result("O=C(O)C1(Nc2ccc(-c3cccc(OC4CC4)c3Cl)c(COC3CC3)c2)CCC(F)(F)CC1")
8.42
>>> recorded_result("COc1cc(OC)c(C)c(-c2ccc(NC3(C(=O)O)CCOCC3)cc2COC2CCCC2)c1")
7.60
>>> recorded_result("O=C(O)C1(Nc2ccc(-c3cccc(CCO)c3F)c(COC3CC3)c2)CCOCC1")
6.15
>>> recorded_result("CCOc1cncc(-c2c(C)cc(NC3(C(=O)O)CCOCC3)cc2COC2CC2)c1C(F)F")
6.75
>>> recorded_result("COc1cc(-c2ccc(NC3(C(=O)O)CC(OC)C3)cc2COC2CCCC2)c(C)c(OC)c1C (stereo not shown) [Compound 196]")
7.52
>>> recorded_result("COc1cc(OC)c(F)c(-c2ccc(OC3(C(=O)O)CCOCC3)cc2COC2CCCC2)c1")
6.78
>>> recorded_result("COc1cccc(-c2ccc(NC3(C(=O)O)CCOCC3)cc2COC2CCCC2)c1C")
7.09

Look up pIC50 of `COc1cc(-c2ccc(OC3(C(=O)O)CCOCC3)cc2COC2CCCC2)c(Cl)c(OC)c1C` and report it.
7.82

Look up pIC50 of `COc1cc(-c2ccc(NC3(C(=O)O)CCOCC3)cc2COC2CCCC2)cc(OC)c1C(C)=O` and report it.
7.04

Look up pIC50 of `COC(=O)N1CC(Nc2ccc(-c3cc(OC)c(C)c(OC)c3)c(COC3Cc4ccccc4C3)c2)(C(=O)O)C1` and report it.
7.76

Look up pIC50 of `COc1cc(OC)c(Cl)c(-c2ccc(NC3(C(=O)O)CCOCC3)cc2COCC(C)C)c1` and report it.
6.98

Look up pIC50 of `COc1cc(-c2c(F)cc(NC3(C(=O)O)CCOCC3)cc2COC2CCCC2)cc(OC)c1C` and report it.
7.68
